Recorded values, source PubChem BioAssay AID434968.

Test: counter-screen: blocks GFP chromophore formation, dose response, counter-screen, biochemical, fluorescence, homogeneous (AID 434968)
Conditions: cell-free GFP chromophore formation
Hit rate of the full screen: of about 2,100 compounds, about 1,800 (86%) were called active. How the calls were made is not given here. The set was probably picked from earlier hits. A selection follows.
Outcomes: active, inactive

[
  {
    "compound": "O=C1CC(c2ccccc2)=NN1c1ccc([N+](=O)[O-])cc1",
    "group": "active"
  },
  {
    "compound": "COC(=O)CC1=NN(c2nc(C)cc(C)n2)C(=O)C1",
    "group": "inactive"
  },
  {
    "compound": "O=c1[nH]c2ccccc2n2c(-c3ccccc3)nnc12",
    "group": "active"
  },
  {
    "compound": "CCc1ccc(C2C(C#N)=C(N)Oc3n[nH]c(CC(=O)OC)c32)cc1 (stereo unspecified)",
    "group": "active"
  },
  {
    "compound": "CN(c1ccccc1)c1ccc([N+](=O)[O-])c2nonc12",
    "group": "active"
  },
  {
    "compound": "Cc1ccccc1C(CC(=O)c1cccs1)C(C#N)C#N (stereo unspecified)",
    "group": "active"
  }
]
